Each item that follows carries a reported kd.
- EXPERIMENTAL SYSTEM: T1, human ARG2 (Homo sapiens, UniProt P78540, E275H/R327K)
- T1 construct: His10 (after a GGG linker) (C); made in house; host or cells: E. coli BL21 (DE3)
- T1 sequence (P78540 23-354 E275H/R327K): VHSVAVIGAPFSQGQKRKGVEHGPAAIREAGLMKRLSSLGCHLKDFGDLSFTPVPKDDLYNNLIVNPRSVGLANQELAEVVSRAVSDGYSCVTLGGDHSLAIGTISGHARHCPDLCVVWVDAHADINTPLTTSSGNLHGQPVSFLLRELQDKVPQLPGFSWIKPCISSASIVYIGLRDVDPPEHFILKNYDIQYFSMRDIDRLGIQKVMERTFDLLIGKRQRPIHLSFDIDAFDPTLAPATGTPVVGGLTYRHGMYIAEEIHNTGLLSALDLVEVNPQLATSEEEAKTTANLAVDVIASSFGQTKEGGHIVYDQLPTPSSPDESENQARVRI
- PROCEDURE TEXT: Bio-Layer Interferometry (OctetRED) binding kinetics, human ARG2
- PARTICULARS: second-generation Fab; extended assay: association 10 min, dissociation 40 min, 0.47 to 30 nM, streptavidin surface with bio-ARG2
- From the text: The OctetRED (Pall ForteBio) instrument was used to assess the kinetic parameters of the interactions between C0020187 and recombinantly produced human ARG2, cynomolgus ARG2 and human ARG1. […] Any changes in binding at the biosensor tip result in a shift in interference pattern, which can be measured in real time. […] Typically, a defined concentration of the analyte species is brought into contact with the coupled ligand and any binding is detected as an increased in signal (association phase). […]
The response must be a number in s⁻¹ with no trailing unit.

Look over these answered cases.
• C0021180: anti-ARG2 antibody, VH SEQ ID NO: 332, VL SEQ ID NO: 337 (antibody, listed as Homo sapiens, V domains shown, C0021180) VH: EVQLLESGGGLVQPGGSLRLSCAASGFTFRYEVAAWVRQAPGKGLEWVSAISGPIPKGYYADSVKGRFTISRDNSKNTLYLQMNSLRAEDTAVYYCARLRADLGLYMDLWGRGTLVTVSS VL: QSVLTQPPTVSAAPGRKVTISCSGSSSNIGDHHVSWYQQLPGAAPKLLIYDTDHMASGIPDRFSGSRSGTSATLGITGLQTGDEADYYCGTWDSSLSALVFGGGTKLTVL = 0.000122
• C0021181: anti-ARG2 antibody, VH SEQ ID NO: 342, VL SEQ ID NO: 347 (antibody, listed as Homo sapiens, V domains shown, C0021181) VH: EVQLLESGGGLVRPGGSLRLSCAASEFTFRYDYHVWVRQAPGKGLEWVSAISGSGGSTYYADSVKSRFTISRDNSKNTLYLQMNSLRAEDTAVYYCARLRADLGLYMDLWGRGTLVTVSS VL: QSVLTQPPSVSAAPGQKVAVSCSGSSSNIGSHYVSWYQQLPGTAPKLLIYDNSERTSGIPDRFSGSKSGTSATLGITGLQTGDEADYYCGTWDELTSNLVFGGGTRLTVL = 4.17e-05
• C0021155: anti-ARG2 antibody, VH SEQ ID NO: 262, VL SEQ ID NO: 267 (antibody, listed as Homo sapiens, V domains shown, C0021155) VH: EVQLLESGGGLVQPGGSLRLSCEASGFTFRYDYHVWVRQAPGKGLEWVSAISGSGGSTYYADPVKGRFTISRDNSKNTLYLQMNSLRAEDTAVYYCARLRADLGLYMDLWGRGTLVTVSS VL: RSVLTQPPSVSAAPGQKVTISCSGSSSNIGNHYVSWYQQLPGTAPKLLIYDTTVLSSGIPDRFSGSKSGTSATLGITGLQTGDEADYYCGTWDELTSNLVFGGGTRLTVL = 5.67e-05

Input line: Entry C0021144: anti-ARG2 antibody, VH SEQ ID NO: 252, VL SEQ ID NO: 257 (antibody, listed as Homo sapiens, V domains shown, C0021144) VH: EVQLLESGGGLVQPGGSLRLSCAASGFTFRYDYHVWVRQAPGKGLEWVSAISGSGGSTYYADSVKGRFTISRDNSKNTLYLQMNSLRAEDTAVYYCARLRADLGLYMDLWGRGTLVTVSS VL: QSVLTQPPSVSAAPGQKVTVSCSGSSSNIGNHHVSWYQQLPGTAPKLLIYDTTVLSSGVPDRFSGSKSGTSATLGITGLQTGDEADYYCGTWDELTSNLVFGGGTKLTVL : reported kd = ?
Output line: 6.59e-05

Input line: Entry C0021177: anti-ARG2 antibody, VH SEQ ID NO: 322, VL SEQ ID NO: 327 (antibody, listed as Homo sapiens, V domains shown, C0021177) VH: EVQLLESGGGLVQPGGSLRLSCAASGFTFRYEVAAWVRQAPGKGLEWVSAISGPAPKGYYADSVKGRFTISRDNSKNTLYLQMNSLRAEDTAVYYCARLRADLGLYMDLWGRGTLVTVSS VL: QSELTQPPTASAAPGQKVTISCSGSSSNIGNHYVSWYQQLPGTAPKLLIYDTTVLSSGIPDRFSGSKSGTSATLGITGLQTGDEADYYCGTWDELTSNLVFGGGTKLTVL : reported kd = ?
Output line: 3.51e-05

Input line: Entry C0021158 IgG: anti-ARG2 antibody, VH SEQ ID NO: 282, VL SEQ ID NO: 287; IgG and Fab versions carry these sequences (antibody, listed as Homo sapiens, V domains shown, C0021158 IgG) VH: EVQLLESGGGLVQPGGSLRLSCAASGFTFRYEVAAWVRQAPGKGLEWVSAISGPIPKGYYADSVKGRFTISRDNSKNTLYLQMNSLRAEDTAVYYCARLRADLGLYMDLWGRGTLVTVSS VL: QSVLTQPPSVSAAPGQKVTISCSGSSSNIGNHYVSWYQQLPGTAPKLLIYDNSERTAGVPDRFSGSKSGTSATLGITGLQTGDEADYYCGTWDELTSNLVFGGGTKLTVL : reported kd = ?
Output line: 4.54e-05

Data provenance: patent US20220403048A1
